Parameter: cell viability. Scope: all listed entries.
# System: P12-Ichikawa
# testDescription: cell viability relative to DMSO control; higher = less cytotoxic
# conditionContext: RPMI 5 mM glucose + 10% dialyzed FBS; 48 h; 0.0211 µM
Mention the unit after the number when you answer.

1) CC1(C)CCC(=C(CN2CCN(CC2)C3=CC=C(C=C3)C(=O)N[S+]([O-])(=O)C4=CC(=C(N[C@H](CCN5CCOCC5)CSC6=CC=CC=C6)C=C4)[S+]([O-])(=O)C(F)(F)F)\C1)/C7=CC=C(Cl)C=C7    122%
2) NC1=NC=C(C=C1)C2=CC=C3N=CC\4=C(N(C(=O)\C=C4)C5=CC(=CC=C5)C(F)(F)F)C3=C2    52.7%
3) CCC(=O)OCC(=O)[C@@]1(OC(=O)CC)[C@@H](C)C[C@H]2[C@@H]3CCC4=CC(=O)C=C[C@]4(C)[C@@]3(F)[C@@H](O)C[C@@]21C    94.8%

query: # input compound: CC1(C)OC2CC3C4CC(F)C/5=C/C(=O)/C=C\C5(C)C4C(O)CC3(C)[C@@]2(O1)C(=O)CO (some centres undefined) ; wanted: its cell viability
result: 102%
